# System: Lolium perenne (LOLPE)
# assay_name: Example B post-emergence herbicidal test, LOLPE
# Assay type: in vivo
# measurement_conditions: Lolium perenne, 312 h, rate 250 g/ha, evaluated after 13 days, scale 0-100, read-out: Post-emergence activity LOLPE (100=total damage to plant; 0=no damage to plant)
observed_property: pest or weed control at 250 g/ha

- Cc1cc(C)c(C2C(=O)CC(CC3C[C@@H]4O[C@H]3[C@@H]3C(=O)N(C)C(=O)[C@@H]34)C2=O)c(C)c1 (some centres unmarked): 50%
- Cc1cc(C)c(C2C(=O)CC(CC3CCN(S(C)(=O)=O)CC3)C2=O)c(C)c1 (centres unmarked): 90%
- Cc1cc(C)c(C2C(=O)CC(CC3COCCO3)C2=O)c(C)c1 (centres unmarked): 100%
- CCCC(=O)N1CCC(CC2CC(=O)C(c3c(C)cc(C)cc3C)C2=O)CC1 (centres unmarked): 100%
- CCC(=O)OC1=C(c2c(C)cc(C)cc2C)C(=O)C(CC2CCN(C(=O)CC)CC2)C1 (centres unmarked): 90%
- Cc1cc(C)c(C2C(=O)CC(CC3CCN(C(=O)C(F)(F)C(F)F)C3)C2=O)c(C)c1 (centres unmarked): 100%
- Cc1cc(-c2ccc(Cl)cc2)cc(C)c1C1C(=O)C/C(=C\C2CCOCC2)C1=O (centres unmarked): 90%
- Cc1cc(C)c(C2C(=O)C/C(=C\C3CCCOC3)C2=O)c(C)c1 (centres unmarked): 100%
